- targetEntity: Human KLK1 (Homo sapiens)
measuredAttribute: IC50 (nM)
Hi! Could you send only the number? It should be in nM, unit omitted.

Which IC50 reading was recorded for the compound CCC(C)[C@@H](NC)C(=O)N[C@@H](Cc1cccc(Cl)c1)C(=O)NCc1ccc(N)nc1 (stereo partly drawn) ?
3.1

Can you handle `CN1CCC[C@@H]1C(=O)N[C@@H](Cc1ccccc1C(F)(F)F)C(=O)NCc1ccc(N)nc1` next?
15

Can you handle Nc1ccc(CNC(=O)[C@H](Cc2ccc(Cl)c(Cl)c2)NC(=O)[C@H]2CCCN2Cc2ccccc2)cn1 [Example 7] next?
10.5

Can you handle `CC(C)N(C)[C@H](C)C(=O)N[C@@H](Cc1ccc(F)cc1)C(=O)NCc1ccc(N)nc1` next?
7.9

Further cases:
Which IC50 reading was recorded for the compound CCC(C)[C@@H](N)C(=O)N[C@@H](CC1CCCC2CCCCC21)C(=O)NCc1ccc(N)nc1 (stereo partly drawn) ?
1

Can you handle `CCN(CC)[C@@H](C)C(=O)N[C@@H](Cc1ccc(F)c(F)c1)C(=O)NCc1ccc(N)nc1` next?
2.5

* * *

Below are compounds with their pIC50 as measured on Human KLK1 (Homo sapiens).
// returns pIC50 (minus log10 of molar concentration), number only

Which pIC50 reading was recorded for the compound Cc1cc(C)c(C(=O)N[C@@H](Cc2cccc(Cl)c2)C(=O)NCc2ccc(N)nc2)[nH]1 [Example 235] ?
8.62

Can you handle Nc1ccc(CNC(=O)[C@H](Cc2ccc(Cl)c(Cl)c2)NC(=O)[C@H]2CCCN2Cc2ccccc2)cn1 [Example 141] next?
7.86

Can you handle CN[C@H](C)C(=O)N[C@@H](Cc1ccc(F)c(F)c1)C(=O)NCc1ccc(N)nc1 [Example 84] next?
8.10

Further cases:
Which pIC50 reading was recorded for the compound Cc1cc(C)c(C(=O)N[C@@H](Cc2c[nH]c3ccccc23)C(=O)NCc2ccc(N)nc2C)[nH]1 [Example 283] ?
8.29

Can you handle CN[C@H](C)C(=O)N[C@@H](Cc1ccc(Cl)c(Cl)c1)C(=O)NCc1ccc(N)nc1 [Example 62] next?
8.62

* * *

- targetEntity: Human KLK1 (Homo sapiens, UniProt P06870)
- Sequence (P06870 25-262): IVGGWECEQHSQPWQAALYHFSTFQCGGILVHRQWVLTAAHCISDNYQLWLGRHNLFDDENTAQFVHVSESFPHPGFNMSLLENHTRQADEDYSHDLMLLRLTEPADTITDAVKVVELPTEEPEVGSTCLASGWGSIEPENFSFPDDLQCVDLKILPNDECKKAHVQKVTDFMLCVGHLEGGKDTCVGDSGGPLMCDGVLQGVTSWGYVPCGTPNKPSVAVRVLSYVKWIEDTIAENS
measuredAttribute: IC50 (nM)
Hi! Could you send only the number? It should be in nM, unit omitted.

Kindly state the measured IC50 obtained for `CCN(CC)[C@@H](CC(=O)OC)C(=O)N[C@@H](Cc1ccc(F)c(F)c1)C(=O)NCc1ccc(N)nc1` with Human KLK1 (Homo sapiens, UniProt P06870).
43.7

Can you handle `Cc1nc(N)ccc1CNC(=O)[C@H](Cc1ccc(Cl)c(Cl)c1)NC(=O)[C@H]1CCc2ccccc2N1` next?
22.5

Can you handle CCC(C)[C@@H](NC)C(=O)N[C@@H](Cc1ccc(F)c(F)c1)C(=O)NCc1ccc(N)nc1 (single isomer, unassigned) next?
11.2

Further cases:
Kindly state the measured IC50 obtained for `CN(CC(=O)N[C@@H](Cc1ccc(F)c(F)c1)C(=O)NCc1ccc(N)nc1)CC1CCCCC1` with Human KLK1 (Homo sapiens, UniProt P06870).
334
